Reference source for all entries: a melting point compilation (Tetko et al.)

Each item that follows carries a reported melting point.
readout: melting point

[[record]]
compound = "N#CCC(=O)N1CCN(c2ccccc2)CC1"
testvalue = "132 to 134 °C"

[[record]]
compound = "COc1ccc([N+](=O)[O-])cc1CN"
testvalue = "101 to 103 °C"

[[record]]
compound = "CCn1nc(C(F)(F)F)c(C(=O)O)c1C(F)(F)F"
testvalue = "89 to 91 °C"

[[record]]
compound = "COc1cccc(C(N)=NO)c1"
testvalue = "103 to 105 °C"

[[record]]
compound = "CN1CC(=O)N(Cc2ccc(C(N)=O)cc2[N+](=O)[O-])C1=O"
testvalue = "219 to 221 °C"

[[record]]
compound = "Cc1ccc(OCCCC(=O)Nc2ccc(CN)cc2)cc1"
testvalue = "97 to 99 °C"

[[record]]
compound = "COc1nc(C(=O)O)cc2ccccc12"
testvalue = "184 to 186 °C"

[[record]]
compound = "Nc1cccc2c1CC(O)C2 (stereo not drawn)"
testvalue = "125 to 127 °C"

[[record]]
compound = "O=CNc1cccc(O)c1"
testvalue = "115 to 117 °C"

[[record]]
compound = "O=C(O)C=Cc1cc(Br)cs1"
testvalue = "169 to 171 °C"

[[record]]
compound = "COC(=O)C(=O)CC(=O)c1cc(OC)ccc1OC"
testvalue = "85 to 90 °C"

[[record]]
compound = "FC(F)(F)c1ccc(CNc2ccc(Br)cc2)cc1"
testvalue = "70 to 72 °C"

[[record]]
compound = "CC(C)(C)OC(=O)Nc1ccc(CC(=O)N2CCNCC2)cc1"
testvalue = "169 to 171 °C"

[[record]]
compound = "NC(=O)C1CNc2ccccc2C1 (stereo not drawn)"
testvalue = "121 to 123 °C"

[[record]]
compound = "CCOC(=O)Cn1c(=O)[nH]c2cc(Br)cnc21"
testvalue = "206 to 208 °C"

[[record]]
compound = "Cn1c(Cl)cnc1CO"
testvalue = "110 to 112 °C"

[[record]]
compound = "O=C(c1ccc(F)cc1)c1ccc(Cl)cc1"
testvalue = "115 to 117 °C"

[[record]]
compound = "Cc1cc(C)c(C)c(OCCC(=O)O)c1"
testvalue = "129 to 131 °C"

[[record]]
compound = "O=Cc1ccc(F)c2cccnc12"
testvalue = "113 to 115 °C"

[[record]]
compound = "CCOc1ccc(C(=O)CBr)cc1"
testvalue = "57 to 59 °C"

[[record]]
compound = "O=C(O)c1ccc(Cl)cc1NS(=O)(=O)c1ccccc1"
testvalue = "189 to 191 °C"

[[record]]
compound = "CC(=O)CC(=O)Nc1ccc(F)c(F)c1"
testvalue = "92 to 94 °C"

[[record]]
compound = "COC(=O)c1nc[nH]n1"
testvalue = "180 to 182 °C"

[[record]]
compound = "Cc1ccc(S(=O)(=O)N2CCC(C(=O)O)CC2)c(C)c1"
testvalue = "200 to 202 °C"

[[record]]
compound = "COc1cc(C=O)ccc1SC"
testvalue = "45 to 47 °C"

[[record]]
compound = "CCOc1ccccc1C(=O)CBr"
testvalue = "74 to 76 °C"

[[record]]
compound = "O=[N+]([O-])c1cncc(Br)c1Cl"
testvalue = "45 to 47 °C"

[[record]]
compound = "CCOC(=O)c1nc(-c2ccc(Cl)c(Cl)c2)oc1C"
testvalue = "99 to 101 °C"

